# experiment: yeast display, Sf9 membrane polyspecificity reagent, FACS + sequencing; frameworks hold sequencing errors

[
  {
    "sequence-data": "QVQLLESGGGLVQAGGSLRLRCASSGRIFVYYAMGWYRQAPGKERELVAANRWTGGSTYYADSVKGRFTISRDNAKNTVYLQMNSLKPEDTAVYYCATVNRYGHFNYWGQGTQVTVSS",
    "polyreactivity (PSR sort gate)": "high polyreactivity"
  },
  {
    "sequence-data": "QVQLVESGGGLVQAGGSLRLSCAASGFIFSLYAMGWYRQAPGKERELVGAITRSGGSTYYADSVKGRFTISRDNAKNTVYLQMNSLKAEDTAVYYCAVSACYHYNYWGQGTQVTVSS",
    "polyreactivity (PSR sort gate)": "high polyreactivity"
  },
  {
    "sequence-data": "QVQLVESAGGLVQAGGSLRLSCAASGSTFQSYAMGWYRQAPGKDRELVAAISSGGITYYADSVKGRFTISRDNAKNTVYLQMTSLIPEDTAVYYCAKVPTYLIYNRYSRYDYWGQGTQVTVSS",
    "polyreactivity (PSR sort gate)": "low polyreactivity"
  },
  {
    "sequence-data": "QVQLVESGGGLVQAGGSLRLSCAASGGIFNRYAMGWYRPAPGKERELVAGITRSGGSTSYADSVKGRFTISRDNAKNTVYLQMNSLKPEDTAVYYCNKVAYYASSSYYRFGAYGYWGQGTQVTVSS",
    "polyreactivity (PSR sort gate)": "high polyreactivity"
  },
  {
    "sequence-data": "QVQLVETGGGLVQARGSLRLSSAASGFIFDENAMGWYRQAPGKERELVAAITSGGGSTYYADSVKGRFTISRDNAKNTVYFQMNSQNPEDTAVYYCNAVPTQHDEFDYWGQGTQVTVSS",
    "polyreactivity (PSR sort gate)": "low polyreactivity"
  },
  {
    "sequence-data": "QVQLVESGGGLVQAGGSLRLSCAASGFTFTVYAMGWYRPAPGKERELVAVITSGDGTYYADSVKGRFTISRDNAKNTVYLQMNSLKPEDTAVYYCNARRYSSFRYRFAYDYWGQGTQVTVSS",
    "polyreactivity (PSR sort gate)": "low polyreactivity"
  },
  {
    "sequence-data": "QVQLVESGGGLDQAGGRLRLSCAASGRTFIVFAMGWYRQAPGKESELVAGITRGSTNYADSVKGRFTISRDNAKNTVYLQMNSLKPEDTEVYYCATEVYIWPWGTVYAFEYDYWGQGTQVTVSS",
    "polyreactivity (PSR sort gate)": "high polyreactivity"
  },
  {
    "sequence-data": "QVQLVESGGGLVQAGGSLRLSCAASGSTFVVNAMGWYRQAPGKERELVAAIRIIGGSTYYADSVKGRFTISRDNAKNTVYLQMKSLKPEDTAVYYCVYSGYFPHQSKMDYWGQGTQVTVSS",
    "polyreactivity (PSR sort gate)": "low polyreactivity"
  },
  {
    "sequence-data": "QVQLVESGGGLVQAGGSLRLSCAASGSIFYIYAMGWYRQAPGKERELVASITFSGDITYYADSVKGRFTISRDNAKNTVYLQMNSLKPEDTAVYYCAADYHEQSYAVTYDYWGQGTQVTVSS",
    "polyreactivity (PSR sort gate)": "low polyreactivity"
  },
  {
    "sequence-data": "QVQLVESGGGLVQAGGSLRLSCAASGFTFYRNAMGWYRQAPGKERELVAGISKRGGSTYYADSVKGRFTISRDNAKNTVYLQMNSLKPEDTAVYYCAAYKQYRFYRYDYWGQGTQVTVSS",
    "polyreactivity (PSR sort gate)": "high polyreactivity"
  },
  {
    "sequence-data": "QVQLVESGGGLVQAGGSLRLSCAASGYIFLRNAKGWSRQAPGKERELVAAIRRTGGSTYYADSVKGRFTISRDIAKNTVYLDMNSLKPEDTAVYYCAKRSYTGYEYLGQGTQVTVSS",
    "polyreactivity (PSR sort gate)": "low polyreactivity"
  },
  {
    "sequence-data": "QVQLVESGGGLVQAGGSLRLSCAASGSIFSRYAMGWYRQAPGTERELVAAITSSGTSTYYADSVKGRFTISRDNAKNTVYLQMNSLKPEDTAVYYCAAAFRQRTSRYDYWGQGTQVTVSS",
    "polyreactivity (PSR sort gate)": "high polyreactivity"
  },
  {
    "sequence-data": "QVQLVESGGALVQAGGSLRLSCAASGSIFRFYAMGWYRQAPGKERELVAAISWSGGSTYYADSVKGRFTISRDNAKNTVYLQMNSLKPEDTAVYYCNTRYYGGFDSWGQGTQVTVSS",
    "polyreactivity (PSR sort gate)": "high polyreactivity"
  },
  {
    "sequence-data": "QVQLVESGGGLVQAGGSLRLSCAASGRIFVPYVMGWYRQAPGKERELVASISDSDTSTYYADSVKGRFTISRDNAKNTVDLQMNSLKPEDTAVYYCNVDYWGQGTQVTVSS",
    "polyreactivity (PSR sort gate)": "low polyreactivity"
  },
  {
    "sequence-data": "QVQLVESGGGLVQAGGSLRLSCAASGRTFVANTMGWYRQAPGKEREFVAGISRRGGSTYYADSVKGRYTISRDNAKNTVYLQMNSLKPEDPAVYYCAVGTWARYRGLEYDYWGQGTQVTVSS",
    "polyreactivity (PSR sort gate)": "high polyreactivity"
  },
  {
    "sequence-data": "QVQLVESGGGLVQAGGSLRLSCAASGSTLYIYVMGWYRQAPGKERELVAAIDSGDDTDYADSVKGRFTISRDNAKNTVYLQMNSLKPEVTAVYYCAAQKWYYPYYWGKGTQVTVSS",
    "polyreactivity (PSR sort gate)": "high polyreactivity"
  },
  {
    "sequence-data": "QVQLVESGGGLVHAGCSLPLTCAASGSTLDANAMGSYRQAPGKEMELVAAISSGGITYYADSVKGRFTFSRDNAKSTVYLQMNCLKPEDTAGYYCANRGQGFQFGRDYWGQGTQVTVSS",
    "polyreactivity (PSR sort gate)": "low polyreactivity"
  },
  {
    "sequence-data": "QVQLVESGGGLVQAGGSLRLSCAASGGTFYTNVMGWYRQAPGKERELVAAITRSGGSTHYADSVKGRFTISRDNAKNTVYLQMNSLKPEDTAVYYCAVGSPYYDGMDYWGQGTQVTVSS",
    "polyreactivity (PSR sort gate)": "low polyreactivity"
  },
  {
    "sequence-data": "QVQLVESGGGLVQAGGSLRLSCAASGRIFTFYAMGWYRQAPGKERELVAAITSGGSTYYADSVKGRFTISRDNAKKTVYLQMNSLKPEDTAVYYCNTYPGSRHGWYDYWGQVTQVTVSS",
    "polyreactivity (PSR sort gate)": "high polyreactivity"
  },
  {
    "sequence-data": "QVQLVESGGGLVQAGGSLRLSCAASGRTFYYYAMGRYRQAPGKEREFVASISYSGARTYYADSVKGRFTISRDNAKNTVYLQMNSLKPEDTAVYYCAASWRSGRGTYGYWGQGTQVTVSS",
    "polyreactivity (PSR sort gate)": "high polyreactivity"
  },
  {
    "sequence-data": "QVQLVESGGGLVQAGGSLRLSCAASGSTFGLYTMGWYRQAPGKERELVASISIGGSTYYADSVKGRFTISRDNAKNTVYLQMNSLKPEDTAVYYCAADVKRDRVWGGDYWGQGTQVTVSS",
    "polyreactivity (PSR sort gate)": "low polyreactivity"
  }
]
